Collected IC50 values appear next to each entry.
biological target: PI3Kγ (p110γ) (Homo sapiens (Human), UniProt P48736); assay: PI3K-γ scintillation proximity assay; assay type: biochemical; settings: recombinant human PI3Kγ 13 nM, 20 μM PIP2, 2 μM ATP, 120 min, room temperature
Sequence (P48736 whole entry): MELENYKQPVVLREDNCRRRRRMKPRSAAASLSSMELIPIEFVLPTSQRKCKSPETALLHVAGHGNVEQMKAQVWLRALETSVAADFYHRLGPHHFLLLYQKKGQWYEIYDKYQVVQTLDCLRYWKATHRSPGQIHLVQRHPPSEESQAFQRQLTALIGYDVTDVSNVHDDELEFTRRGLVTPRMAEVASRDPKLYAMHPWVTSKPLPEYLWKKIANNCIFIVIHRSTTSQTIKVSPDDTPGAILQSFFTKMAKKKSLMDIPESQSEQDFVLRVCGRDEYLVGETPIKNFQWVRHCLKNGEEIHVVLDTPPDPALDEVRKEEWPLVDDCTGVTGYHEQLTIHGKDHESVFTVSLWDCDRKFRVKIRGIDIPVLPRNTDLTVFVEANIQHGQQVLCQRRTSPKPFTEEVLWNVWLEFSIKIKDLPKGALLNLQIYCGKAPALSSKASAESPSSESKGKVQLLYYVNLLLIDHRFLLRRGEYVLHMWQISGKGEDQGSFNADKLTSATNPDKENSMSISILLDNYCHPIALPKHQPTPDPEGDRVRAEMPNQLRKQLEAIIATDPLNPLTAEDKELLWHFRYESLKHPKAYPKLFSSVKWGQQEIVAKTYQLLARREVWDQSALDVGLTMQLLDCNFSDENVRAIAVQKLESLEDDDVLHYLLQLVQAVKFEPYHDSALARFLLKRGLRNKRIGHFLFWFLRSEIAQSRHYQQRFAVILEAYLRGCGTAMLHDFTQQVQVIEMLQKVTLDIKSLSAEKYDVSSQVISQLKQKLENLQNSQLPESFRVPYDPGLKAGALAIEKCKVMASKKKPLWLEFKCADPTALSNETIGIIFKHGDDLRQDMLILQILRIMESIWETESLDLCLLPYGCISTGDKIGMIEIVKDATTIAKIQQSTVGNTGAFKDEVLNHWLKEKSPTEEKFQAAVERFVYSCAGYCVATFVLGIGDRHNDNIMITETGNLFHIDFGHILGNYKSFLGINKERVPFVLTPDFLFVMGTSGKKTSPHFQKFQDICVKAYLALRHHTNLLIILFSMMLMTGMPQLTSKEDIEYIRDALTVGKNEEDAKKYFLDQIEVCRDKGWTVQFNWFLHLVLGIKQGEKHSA
Where a name gives a salt, the structure may show the parent alone.
value kind: IC50

• Cc1[nH]c(-c2cc(-c3cc4c(c(S(C)(=O)=O)c3)C(=O)N([C@@H](C)C3CC3)C4)ccn2)nc1C(=O)N1CC(F)(F)C1 [Example 7d, trifluoroacetate salt] = < 0.1 µM
• CCNC(=O)c1nc(-c2cc(-c3cc4c(c(S(C)(=O)=O)c3)C(=O)N([C@@H](C)C3CC3)C4)ccn2)[nH]c1C [Example 7r, trifluoroacetate salt] = < 0.1 µM
• Cc1[nH]c(-c2cc(-c3cc4c(c(S(C)(=O)=O)c3)C(=O)N([C@@H](C)C3CC3)C4)ccn2)nc1C(=O)N1CC(O)C1 [Example 7e, trifluoroacetate salt] = < 0.1 µM
• Cc1nc(-c2cc(-c3cc(Cl)c4c(c3)CN([C@@H](C)C3CC3)C4=O)ccn2)[nH]c1C = < 0.1 µM
• Cc1[nH]c(-c2cc(-c3ccc4c(c3)CN([C@@H](C)C3CC3)C4=O)ccn2)nc1C(=O)NC(C)C [Example 3, Trifluoroacetate Salt] = < 0.1 µM
• Cc1cc(-c2cc(-c3ccc4c(c3)CN([C@@H](C)C3CC3)C4=O)cnn2)[nH]n1 [Example 11, Trifluoroacetate Salt] = 0.5 to 2 µM

====

The following molecules are listed with their measured pIC50 values.
biological target: PI3Kδ (p110δ/p85α) (Homo sapiens (Human)); assay: PI3Kδ scintillation proximity assay; conditions: recombinant human PI3Kδ 3.4 nM, 20 μM PIP2, 2 μM ATP, 120 min, room temperature
pIC50: −log10 of the molar value. Counter-ions that a name gives are not always drawn.
value kind: pIC50

• CN=S(C)(=O)c1cc(-c2ccnc(-c3nc(C)c(C)[nH]3)c2)cc2c1C(=O)N([C@@H](C)C1CC1)C2 (some centres unmarked) [Example 23] = 5.70 to 6.30
• Cc1[nH]c(-c2cc(-c3cc4c(c(S(C)(=O)=O)c3)C(=O)N([C@@H](C)C3CC3)C4)ccn2)nc1C(=O)N(C)C(C)C [Example 7t, trifluoroacetate salt] = 5.70 to 6.30
• Cc1[nH]c(-c2cc(-c3cc4c(c(S(C)(=O)=O)c3)C(=O)N([C@@H](C)C3CC3)C4)ccn2)nc1C(=O)N1CCC1 [Example 7j, trifluoroacetate salt] = 6.30 to 7.00
• Cc1nc(-c2cc(-c3cc4c(c(C(O)CO)c3)C(=O)N([C@@H](C)C3CC3)C4)cnn2)[nH]c1C (some centres unmarked) [Example 19, Trifluoroacetate Salt] = < 5.70
• Cc1cc(-c2cc(-c3cc4c(c(S(C)(=O)=O)c3)C(=O)N([C@@H](C)C3CC3)C4)ccn2)[nH]n1 [Example 14, Trifluoroacetate Salt] = < 5.70
• Cc1[nH]c(-c2cc(-c3cc4c(c(S(C)(=O)=O)c3)C(=O)N([C@@H](C)C3CC3)C4)ccn2)nc1C(=O)N1CC(O)C1 [Example 7e, trifluoroacetate salt] = 6.30 to 7.00
• Cc1[nH]c(-c2cc(-c3cc4c(c(S(C)(=O)=O)c3)C(=O)N([C@@H](C)C3CC3)C4)ccn2)nc1C(=O)NC1CCOC1 (mixture of isomers) = 6.30 to 7.00
• Cc1cc(-c2cc(-c3ccc4c(c3)CN([C@@H](C)C3CC3)C4=O)cnn2)[nH]n1 [Example 11, Trifluoroacetate Salt] = < 5.70
• Cc1[nH]c(-c2cc(-c3ccc4c(c3)CN([C@@H](C)C3CC3)C4=O)ccn2)nc1C(=O)NC(C)C [Example 3, Trifluoroacetate Salt] = 5.70 to 6.30
• Cc1[nH]c(-c2cc(-c3cc4c(c(S(C)(=O)=O)c3)C(=O)N([C@@H](C)C3CC3)C4)ccn2)nc1C(=O)NC1CC2(COC2)C1 [Example 7i, trifluoroacetate salt] = > 7.00
• C[C@@H](C1CC1)N1Cc2cc(-c3ccnc(-c4ncc[nH]4)c3)cc(S(C)(=O)=O)c2C1=O [Example 17, trifluoroacetate salt] = < 5.70
• CNC(=O)c1nc(-c2cc(-c3ccc4c(c3)CN([C@@H](C)C3CC3)C4=O)ccn2)[nH]c1C [Example 6, trifluoroacetate salt] = < 5.70
• Cc1[nH]c(-c2cc(-c3ccc4c(c3)CN([C@@H](C)C3CC3)C4=O)ccn2)nc1C(=O)N(C)C [Example 5, trifluoroacetate salt] = < 5.70
• Cc1[nH]c(-c2cc(-c3ccc4c(c3)CN([C@@H](C)C3CC3)C4=O)ccn2)nc1C(=O)NC1CCOCC1 [Example 4, trifluoroacetate salt] = 5.70 to 6.30
• Cc1[nH]c(-c2cc(-c3cc4c(c(S(C)(=O)=O)c3)C(=O)N([C@@H](C)C3CC3)C4)ccn2)nc1C(=O)NC1CC(O)C1 (mixture of isomers) = 6.30 to 7.00
• Cc1cnc(-c2cc(-c3cc4c(c(S(C)(=O)=O)c3)C(=O)N([C@@H](C)C3CC3)C4)ccn2)[nH]1 [Example 16, Trifluoroacetate Salt] = 5.70 to 6.30
• C[C@@H](C1CC1)N1Cc2cc(-c3ccnc(-c4ccn[nH]4)c3)cc(S(C)(=O)=O)c2C1=O [Example 15, trifluoroacetate salt] = < 5.70
• Cc1nc(-c2cc(-c3cc(Cl)c4c(c3)CN([C@@H](C)C3CC3)C4=O)ccn2)[nH]c1C = 6.30 to 7.00
• C[C@@H](C1CC1)N1Cc2cc(-c3cnnc(-c4ccn[nH]4)c3)cc(S(C)(=O)=O)c2C1=O [Example 9, Trifluoroacetate Salt] = < 5.70
• Cc1[nH]c(-c2cc(-c3cc4c(c(S(C)(=O)=O)c3)C(=O)N([C@@H](C)C3CC3)C4)ccn2)nc1C(=O)N(C)C1CCC1 [Example 7u, trifluoroacetate salt] = 5.70 to 6.30
• Cc1nnc(-c2cc(-c3ccc4c(c3)CN([C@@H](C)C3CC3)C4=O)ccn2)[nH]1 = < 5.70
• Cc1[nH]c(-c2cc(-c3cc4c(c(S(C)(=O)=O)c3)C(=O)N([C@@H](C)C3CC3)C4)ccn2)nc1C(=O)NC12CCC(C#N)(C1)C2 [Example 7h, trifluoroacetate salt] = > 7.00
• Cc1nc(-c2cc(-c3cc4c(c(S(C)(=O)=O)c3)C(=O)N([C@@H](C)C3CC3)C4)ccn2)[nH]c1C [Example 2, Trifluoroacetate Salt] = 6.30 to 7.00

====

target: PI3Kδ (p110δ/p85α) (Homo sapiens (Human), UniProt O00329); test: PI3Kδ scintillation proximity assay; conditions: recombinant human PI3Kδ 3.4 nM, 20 μM PIP2, 2 μM ATP, 120 min, room temperature
Sequence (O00329 whole entry): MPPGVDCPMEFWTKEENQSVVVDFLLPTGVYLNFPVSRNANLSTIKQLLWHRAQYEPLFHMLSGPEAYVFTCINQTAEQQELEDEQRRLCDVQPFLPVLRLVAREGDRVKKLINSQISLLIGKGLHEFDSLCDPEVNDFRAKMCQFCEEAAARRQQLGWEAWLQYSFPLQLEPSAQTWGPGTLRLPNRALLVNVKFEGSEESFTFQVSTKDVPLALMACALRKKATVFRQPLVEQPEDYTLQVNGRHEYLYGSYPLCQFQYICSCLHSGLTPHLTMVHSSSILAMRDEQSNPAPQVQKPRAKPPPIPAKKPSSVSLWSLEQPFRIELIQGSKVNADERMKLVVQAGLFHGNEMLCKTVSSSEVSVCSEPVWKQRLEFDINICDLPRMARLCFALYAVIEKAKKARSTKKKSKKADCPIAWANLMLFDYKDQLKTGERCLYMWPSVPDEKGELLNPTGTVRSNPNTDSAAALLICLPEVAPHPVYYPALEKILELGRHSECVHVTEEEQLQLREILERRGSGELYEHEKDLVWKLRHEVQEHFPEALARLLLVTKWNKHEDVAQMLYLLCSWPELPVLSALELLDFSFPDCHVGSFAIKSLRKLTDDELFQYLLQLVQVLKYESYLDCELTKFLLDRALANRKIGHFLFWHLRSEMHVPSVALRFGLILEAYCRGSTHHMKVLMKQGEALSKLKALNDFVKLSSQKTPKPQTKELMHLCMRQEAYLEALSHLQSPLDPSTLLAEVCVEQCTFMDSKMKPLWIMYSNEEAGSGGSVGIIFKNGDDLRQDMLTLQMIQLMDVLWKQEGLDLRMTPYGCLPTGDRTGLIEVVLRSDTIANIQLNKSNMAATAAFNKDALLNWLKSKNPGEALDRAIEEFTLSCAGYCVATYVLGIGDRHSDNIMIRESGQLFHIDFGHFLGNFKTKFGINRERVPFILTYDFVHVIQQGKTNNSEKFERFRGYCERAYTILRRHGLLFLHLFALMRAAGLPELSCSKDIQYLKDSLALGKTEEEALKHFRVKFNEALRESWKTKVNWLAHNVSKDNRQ
Sequence (P27986 whole entry partner): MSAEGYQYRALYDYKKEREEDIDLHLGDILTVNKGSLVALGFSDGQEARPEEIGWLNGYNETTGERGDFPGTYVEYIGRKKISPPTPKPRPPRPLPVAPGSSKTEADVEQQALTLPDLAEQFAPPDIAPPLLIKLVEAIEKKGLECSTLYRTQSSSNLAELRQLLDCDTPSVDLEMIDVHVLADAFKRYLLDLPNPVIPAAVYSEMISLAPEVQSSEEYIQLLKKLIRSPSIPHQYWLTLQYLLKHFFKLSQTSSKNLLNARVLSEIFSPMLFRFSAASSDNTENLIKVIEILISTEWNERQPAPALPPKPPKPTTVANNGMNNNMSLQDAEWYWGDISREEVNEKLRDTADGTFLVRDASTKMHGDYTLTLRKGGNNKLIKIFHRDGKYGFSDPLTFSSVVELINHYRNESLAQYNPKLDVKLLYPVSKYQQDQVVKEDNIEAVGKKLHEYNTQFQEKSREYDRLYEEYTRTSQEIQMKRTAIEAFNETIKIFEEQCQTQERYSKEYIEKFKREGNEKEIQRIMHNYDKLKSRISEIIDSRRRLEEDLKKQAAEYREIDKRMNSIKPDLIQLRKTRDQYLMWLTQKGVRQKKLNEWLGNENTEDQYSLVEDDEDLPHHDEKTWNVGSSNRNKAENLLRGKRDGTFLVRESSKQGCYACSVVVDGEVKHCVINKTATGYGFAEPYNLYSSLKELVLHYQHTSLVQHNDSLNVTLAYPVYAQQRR
Counter-ions that a name gives are not always drawn.
Form field: IC50 (one value per entry).
value kind: IC50

* Cc1nc(-c2cc(-c3cc4c(c(S(C)(=N)=O)c3)C(=O)N([C@@H](C)C3CC3)C4)ccn2)[nH]c1C (stereo partly drawn) [Example 20, Trifluoroacetate Salt] | > 2000 nM
* Cc1[nH]c(-c2cc(-c3cc4c(c(S(C)(=O)=O)c3)C(=O)N([C@@H](C)C3CC3)C4)ccn2)nc1C(=O)NC1CN(C)C1 [Example 7m, trifluoroacetate salt] | 500 to 2000 nM
* Cc1nc(-c2cc(-c3cc4c(c(S(C)(=O)=O)c3)C(=O)N([C@@H](C)C3CC3)C4)ccn2)[nH]c1C(=O)NC(C)C(F)(F)F (single isomer, unassigned) [Example 7g] | 100 to 500 nM
* Cc1[nH]c(-c2cc(-c3cc4c(c(S(C)(=O)=O)c3)C(=O)N([C@@H](C)C3CC3)C4)ccn2)nc1C(=O)NC1CCC1 [Example 7k, trifluoroacetate salt] | 100 to 500 nM
* CCNC(=O)c1nc(-c2cc(-c3cc4c(c(S(C)(=O)=O)c3)C(=O)N([C@@H](C)C3CC3)C4)ccn2)[nH]c1C [Example 7r, trifluoroacetate salt] | 500 to 2000 nM
* Cc1[nH]c(-c2cc(-c3cc4c(c(S(C)(=O)=O)c3)C(=O)N([C@@H](C)C3CC3)C4)ccn2)nc1C(N)=O [Example 7q, trifluoroacetate salt] | 500 to 2000 nM
